All values here come from paper PMC7190722.

Test: Plasma concentrations of GM and HM-1/2 by LC-MS/MS after intravenous GM injection
Type: in vivo, rat
Details: plasma, iv; 0.25 h postinjection, 5 mg/kg GM i.v., rat
value.kind: concentration at 0.25 h
Express your answer as a number followed by its unit.

Request: What value of concentration at 0.25 h has been reported for the following compound? CC=C1CN2CCc3c([nH]c4ccccc34)C2CC1C(=COC)C(=O)OC (stereo not shown) [GM, Geissoschizine methyl ether]
Result: 1070 ng/mL

---

Assay: Plasma concentrations of GM and HM-1/2 by LC-MS/MS after intravenous GM injection
Assay type: in vivo, rat
Conditions: plasma, iv; one-compartment analysis, 5 mg/kg GM i.v., rat; read-out: apparent elimination half-life (converted)
value.kind: half-life (h)
Entry rule: numbers only, all in h.

Request: What value of half-life has been recorded for this entry: CC=C1CN2CCc3c([nH]c4ccccc34)C2CC1C(=COC)C(=O)OC (stereo not shown)
Result: 1.8

---

Assay: Plasma concentrations of GM and HM-1/2 by LC-MS/MS after intravenous GM injection
Format: in vivo, rat
Conditions: plasma, iv; one-compartment analysis, 5 mg/kg GM i.v., rat; read-out: elimination rate constant (converted)
value.kind: k el (s⁻¹)
Kindly answer with a numeric value in s⁻¹, unit omitted.

Request: # lookup: k el of CC=C1CN2CCc3c([nH]c4ccccc34)C2CC1C(=COC)C(=O)OC (stereo not shown)
Result: 0.000111

---

Assay: Brain distribution by DESI-MSI analysis after intravenous GM injection
Format: in vivo, rat
Settings: rat, brain (fourth ventricle), intravenous, 5 mg/kg, Fourth ventricle, 0.25 h, individual animals; read-out: Calculated GM concentration
value.kind: concentration at 0.25 h

Request: Reported concentration at 0.25 h for CC=C1CN2CCc3c([nH]c4ccccc34)C2CC1C(=COC)C(=O)OC (stereo not shown) : what is it?
Result: 1200 ng/g
